target: human active recombinant p38α-6His tagged (Homo sapiens); test: P38 Alpha Enzyme Assay (AlphaScreen, biotinylated-ATF2 substrate); assay type: biochemical; conditions: p38 alpha enzyme inhibition; means of replicate determinations; 4 h pre-incubation at 37° C.; SD of assay 0.2-0.3 log units
Sequence (Q16539 whole entry): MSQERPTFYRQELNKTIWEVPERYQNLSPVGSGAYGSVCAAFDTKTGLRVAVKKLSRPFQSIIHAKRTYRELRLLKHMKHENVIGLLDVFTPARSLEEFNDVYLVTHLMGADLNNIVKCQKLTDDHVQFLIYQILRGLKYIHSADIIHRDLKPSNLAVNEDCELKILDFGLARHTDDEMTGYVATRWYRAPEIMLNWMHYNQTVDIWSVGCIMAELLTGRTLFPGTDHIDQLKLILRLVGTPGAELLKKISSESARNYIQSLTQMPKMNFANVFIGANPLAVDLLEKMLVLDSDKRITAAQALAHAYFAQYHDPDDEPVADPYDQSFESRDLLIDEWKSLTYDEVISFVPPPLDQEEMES
endpoint_label: pIC50
Answer field: number only, no words.

Please review the entries below; each comes with its answer.
- COC[C@H]1CCCN1C[C@H](C)[C@@H](Nc1nccn(-c2cc(C(=O)NC3CC3)ccc2C)c1=O)c1ccccc1: 9
- Cc1ccc(C(=O)NC2CC2)cc1-n1ccnc(N[C@@H](c2ccccc2)[C@@H](C)CN2CCC(C)CC2)c1=O: 8.9
- Cc1c(F)cc(C(=O)NC2CC2)cc1-n1ccnc(NC(C)(C)c2ccccc2OCCNC(C)C)c1=O: 10.2
- COc1ccccc1[C@H](Nc1nccn(-c2cc(C(=O)NC3CC3)ccc2C)c1=O)[C@@H](C)CN1CCCC1: 8.5
- Cc1ccc(C(=O)NC2CC2)cc1-n1ccnc(Sc2ccccc2)c1=O: 6.8

Which value of pIC50 has been reported for Cc1ccc(C(=O)NC2CC2)cc1-n1ccnc(N[C@@H](c2ccccc2)[C@@H](C)CN2CC3CC2CN3C)c1=O (some centres unmarked) in the records?
8.9

Which value of pIC50 has been reported for Cc1ccc(C(=O)NC2CC2)cc1-n1ccnc(SCc2ccccc2)c1=O in the records?
7.3

Which value of pIC50 has been reported for CONC(=O)c1ccc(C)c(-n2ccnc(N3CCNC(c4ccccc4)C3)c2=O)c1 (centres unmarked) in the records?
8.1

---

Each entry below carries its recorded pIC50.
target: human active recombinant p38α-6His tagged (Homo sapiens); test: P38 Alpha Enzyme Assay (AlphaScreen, biotinylated-ATF2 substrate); format: biochemical; settings: p38 alpha enzyme inhibition; means of replicate determinations; 4 h pre-incubation at 37° C.; SD of assay 0.2-0.3 log units
Answer field: number only, no words.

- CCNC[C@H](O)COc1ccccc1C1(Nc2nccn(-c3cc(C(=O)NC4CC4)ccc3C)c2=O)CC1: 10.1

# get_value(readout= pIC50, system= human active recombinant p38α-6His tagged (Homo sapiens)) for Cc1ccc(C(=O)NC2CC2)cc1-n1ccnc(NCc2ccccc2F)c1=O
7.4

---

molecular target: human active recombinant p38α-6His tagged (Homo sapiens); assay: P38 Alpha Enzyme Assay (AlphaScreen, biotinylated-ATF2 substrate); assay type: biochemical; conditions: p38 alpha enzyme inhibition; means of replicate determinations; 4 h pre-incubation at 37° C.; SD of assay 0.2-0.3 log units;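 further: 0.5 nM final p38α, reaction started with ATP and run 45 min at 37 °C, phospho-ATF2 read by antibody-based AlphaScreen, background wells quenched with EDTA before ATP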
# pIC50 >= 9 gives met, anything below gives not met

Observe how each entry below is paired with its result.
• Cc1c(F)cc(C(=O)NC2CC2)cc1-n1ccnc(NC2(c3ccccc3OCCN(C)CCO)CC2)c1=O = met
• CCNC[C@H](O)COc1ccccc1C(C)(C)Nc1nccn(-c2cc(C(=O)NC3CC3)cc(F)c2C)c1=O = met
• Cc1ccc(C(=O)NC2CC2)cc1-n1ccnc(N2CCNC(c3ccccc3)C2)c1=O (stereo not drawn) = not met
• Cc1ccc(C(=O)NC2CC2)cc1-n1ccnc(NCc2ccc3c(c2)OCO3)c1=O = not met

Identify whether the reported pIC50 of the following compound is 9 or greater: Cc1c(F)cc(C(=O)NC2CC2)cc1-n1ccnc(NC(C)(C)c2ccccc2OCCNC[C@@H](C)O)c1=O
met

Identify whether the reported pIC50 of the following compound is 9 or greater: Cc1ccc(C(=O)NC2CC2)cc1-n1ccnc(NC2Cc3ccccc3C2)c1=O
not met

Identify whether the reported pIC50 of the following compound is 9 or greater: CC(C)(Nc1nccn(-c2cc(C(=O)NC3CC3)ccc2Cl)c1=O)c1ccccc1OCCN
met

Identify whether the reported pIC50 of the following compound is 9 or greater: CNC[C@@H](O)COc1ccccc1C1(Nc2nccn(-c3cc(C(=O)NC4CC4)ccc3C)c2=O)CC1
met

Identify whether the reported pIC50 of the following compound is 9 or greater: Cc1ccc(C(=O)NC2CC2)cc1-n1ccnc(NC(C)(C)c2ccccc2OCCCCN2CCN(C)CC2)c1=O
met

Identify whether the reported pIC50 of the following compound is 9 or greater: CNCCOc1ccccc1C1(Nc2nccn(-c3cc(C(=O)NC4CC4)c(F)cc3C)c2=O)CC1
not met
